Origin of values: the supplement of paper PMC11579375

Test system: 13F2 (fetal-II hepatoblastoma organoid with high liver markers)
Test: area under the viability dose-response curve (AUC) (AUC (arbitrary units, max 500 = no viability loss)); higher = less sensitive (higher viability)
Condition Notes: exposure time: 120 h; concentration range: 0.1 nM - 10 µM, 6 doses
Outcome Measure: area under the viability dose-response curve
Form field (numeric): enter value without unit.

Find the recorded area under the viability dose-response curve belonging to COc1cc(Nc2ncc3c(n2)-c2ccc(Cl)cc2C(c2c(F)cccc2OC)=NC3)ccc1C(=O)O and report it.
310

Find the recorded area under the viability dose-response curve belonging to CCOC(=O)CCNc1cc(N2CCc3ccccc3CC2)nc(-c2ccccn2)n1 and report it.
438

Find the recorded area under the viability dose-response curve belonging to CO[C@H]1C[C@@H]2CC[C@@H](C)[C@@](O)(O2)C(=O)C(=O)N2CCCC[C@H]2C(=O)O[C@H]([C@H](C)C[C@@H]2CC[C@@H](OCCO)[C@H](OC)C2)CC(=O)[C@H](C)/C=C(\C)[C@@H](O)[C@@H](OC)C(=O)[C@H](C)C[C@H](C)/C=C/C=C/C=C/1C and report it.
327

---

System: 3E (embryonal-type hepatoblastoma organoid)
Test: area under the viability dose-response curve (AUC) (AUC (arbitrary units, max 500 = no viability loss)); higher = less sensitive (higher viability)
Condition Notes: exposure time: 120 h; concentration range: 0.1 nM - 10 µM, 6 doses
Note to self: area under the viability dose-response curve under 400 means condition met, ties and anything higher get condition not met.

Solved entries:
| Compound | Label |
| --- | --- |
| C[C@@H](c1ccc2nccn2c1)n1nnc2ncc(-c3cnn(C)c3)nc21 [Savolitinib] | condition not met |
| O=c1cc(CN2CCOCC2)occ1OCCCCCSc1ccnc2cc(C(F)(F)F)ccc12 [EHT 1864] | condition met |
| CO[C@H]1C[C@@H]2CC[C@@H](C)[C@@](O)(O2)C(=O)C(=O)N2CCCC[C@H]2C(=O)O[C@H]([C@H](C)C[C@@H]2CC[C@@H](O)[C@H](OC)C2)CC(=O)[C@H](C)/C=C(\C)[C@@H](O)[C@@H](OC)C(=O)[C@H](C)C[C@H](C)/C=C/C=C/C=C/1C [Sirolimus] | condition met |

Does the reported area under the viability dose-response curve of the following compound sit strictly below 400? C=CC(=O)Nc1cc(Nc2nccc(-c3cn(C)c4ccccc34)n2)c(OC)cc1N(C)CCN(C)C [Osimertinib]
condition met

Does the reported area under the viability dose-response curve of the following compound sit strictly below 400? Nc1ncn([C@H]2C[C@H](O)[C@@H](CO)O2)c(=O)n1 [Decitabine (Guadecitabine)]
condition not met

Does the reported area under the viability dose-response curve of the following compound sit strictly below 400? Cc1nc(Nc2ncc(C(=O)Nc3c(C)cccc3Cl)s2)cc(N2CCN(CCO)CC2)n1 [Dasatinib]
condition met

Does the reported area under the viability dose-response curve of the following compound sit strictly below 400? Cc1c(C(=O)Nc2ccc(N3C[C@@H](C)O[C@@H](C)C3)nc2)cccc1-c1ccc(OC(F)(F)F)cc1 [Sonidegib]
condition not met

Does the reported area under the viability dose-response curve of the following compound sit strictly below 400? Cn1nccc1Nc1nccc(-c2ccn([C@H](CO)c3ccc(Cl)c(F)c3)c(=O)c2)n1 [Ravoxertinib]
condition not met

---

Tested on: 135F2 (fetal-II hepatoblastoma organoid with high liver markers)
Test: area under the viability dose-response curve (AUC) (AUC (arbitrary units, max 500 = no viability loss)); higher = less sensitive (higher viability)
Condition Notes: exposure time: 120 h; concentration range: 0.1 nM - 10 µM, 6 doses
Reported area under the viability dose-response curve values are given for each entry in this list.
Form field (numeric): enter value without unit.

Record excerpt, results attached:
| Compound | Tgt | Experimental Value |
| --- | --- | --- |
| C[C@@H]1COCCN1c1cc(=O)n2c(n1)N(Cc1cncc(Cl)c1)[C@H](C(F)(F)F)CC2 | 135F2 | 490 |
| CC[C@@]1(O)C(=O)OCc2c1cc1n(c2=O)Cc2cc3ccccc3nc2-1 | 135F2 | 227 |
| C#Cc1cccc(Nc2ncnc3cc(OCCOC)c(OCCOC)cc23)c1 | 135F2 | 469 |
| Cn1nccc1Nc1nccc(-c2ccn([C@H](CO)c3ccc(Cl)c(F)c3)c(=O)c2)n1 | 135F2 | 380 |

// moving on: another record for area under the viability dose-response curve
Find the recorded area under the viability dose-response curve belonging to O=c1nc(N2CCOCC2)oc2c(-c3cccc4c3sc3ccccc34)cccc12 and report it.
467
